B1: MATN2 (parent)
chain: VNVPGSFVCQCYSGYALAEDGKRC

Variants of: B1
Test: protein stability index of a GFP-peptide fusion (GPS, HEK-293T) (PSI 1-6); higher = more stable;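 note: lentivirally expressed fusions sorted by FACS into six bins by GFP to DsRed ratio, PSI derived from sequencing read proportions per bin multiplied by bin number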
Conditions: c terminus: a fixed tail appended
The entries below are paired with their reported protein stability index.
MEASURED ATTRIBUTE: protein stability index

>>> measured_value("L17D")
2.51
>>> measured_value("E19C")
3.15
>>> measured_value("V3N")
1.73
>>> measured_value("F7K")
2.98
>>> measured_value("R23V")
2.41
>>> measured_value("G14T")
1.69
>>> measured_value("N2Y")
1.41
>>> measured_value("F7E")
2.94
>>> measured_value("R23T")
2.06
>>> measured_value("E19M")
2.33
>>> measured_value("R23N")
2.23
